Assay: Single rising oral dose Phase 1 PK, healthy adults (young males unless stated)
Assay type: in vivo, human
Conditions: male, human, plasma, oral, 5 mg, single 5 mg
property_measured: Cmax (ng/mL)
Just the number please, in ng/mL, no unit attached.

Given the compound O=C(Nc1ccc(C[C@@H]2CC[C@H]([C@H](O)c3ccccc3)N2)cc1)[C@@H]1CCc2nccc(=O)n21 , what is its reported Cmax? 0.79

###

Assay: Single rising oral dose Phase 1 PK, healthy adults (young males unless stated)
Assay type: in vivo, human
Details: male, human, plasma, oral, 100 mg, single 100 mg
property_measured: Cmax (µg/mL)
Just the number please, in µg/mL, no unit attached.

Given the molecule O=C(Nc1ccc(C[C@@H]2CC[C@H]([C@H](O)c3ccccc3)N2)cc1)[C@@H]1CCc2nccc(=O)n21 , what is its reported Cmax? 0.142

###

Assay: Single rising oral dose Phase 1 PK, healthy adults (young males unless stated)
Format: in vivo, human
Details: male, human, plasma, oral, 100 mg, single 100 mg
property_measured: AUC(0-inf) (ng·h/mL)
Just the number please, in ng·h/mL, no unit attached.

Given the molecule O=C(Nc1ccc(C[C@@H]2CC[C@H]([C@H](O)c3ccccc3)N2)cc1)[C@@H]1CCc2nccc(=O)n21 , what is its reported AUC(0-inf)? 1890
